- assay.system: T1, cynomolgus CCR8 (cynomolgus monkey, UniProt G7NYJ2 1-355)
- T1 construct: whole, on cells; also called cyCCR8; cynoCCR8
- T1 sequence (G7NYJ2 entry or part of it): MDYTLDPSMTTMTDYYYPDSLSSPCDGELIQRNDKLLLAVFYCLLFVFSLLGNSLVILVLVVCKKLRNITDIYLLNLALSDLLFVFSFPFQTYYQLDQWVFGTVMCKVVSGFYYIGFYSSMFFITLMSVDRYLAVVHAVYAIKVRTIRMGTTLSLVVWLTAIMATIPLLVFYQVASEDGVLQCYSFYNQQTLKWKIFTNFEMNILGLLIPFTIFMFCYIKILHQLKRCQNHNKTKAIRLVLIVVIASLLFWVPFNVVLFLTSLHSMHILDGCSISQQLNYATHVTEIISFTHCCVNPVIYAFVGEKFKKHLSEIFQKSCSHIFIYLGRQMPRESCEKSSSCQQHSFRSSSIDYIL
- assay.procedure: flow cytometry on cyCCR8 Jurkat cells
readout.type: EC50 (nM)
Number in nM, nothing else.

Examples with their reported EC50 follow.
AC-277371 (antibody, V domains shown) VH: EVQLVESGGGLVQPGGSLKLSCAASGFIFSNAVMYWVRQASGKGLEWVARIKTKFNNYATYYADAVKGRFTISRDDSKNMVYLQMNSLKTEDTAVYYCTAGDRNKPFAYWGQGTLVTVSS VL: ETVVTQSPATLSLSPGERATLSCRASGSVITLLHWFQQKPGQAPRLLIHGASNLESRVPARFSGSGSGTDFTLTISSLEPEDFATYFCQQSWNDPYTFGQGTKLEIKR
4.83
AC-277357 (fucosylated) (antibody, human IgG1, kappa, V domains shown, AC-264700 with LCDR1 D27→T. Human IgG1 kappa) VH: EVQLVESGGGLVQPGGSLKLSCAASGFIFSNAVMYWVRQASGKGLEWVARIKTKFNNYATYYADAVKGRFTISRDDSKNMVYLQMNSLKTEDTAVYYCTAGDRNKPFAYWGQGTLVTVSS VL: ETVVTQSPATLSLSPGERATLSCRASTSVITLLHWFQQKPGQAPRLLIHGASNLESRVPARFSGSGSGTDFTLTISSLEPEDFATYFCQQSWNDPYTFGQGTKLEIKR
2.37

Request: Please give the measured EC50 for this binder: AC-277483 (antibody, V domains shown) VH: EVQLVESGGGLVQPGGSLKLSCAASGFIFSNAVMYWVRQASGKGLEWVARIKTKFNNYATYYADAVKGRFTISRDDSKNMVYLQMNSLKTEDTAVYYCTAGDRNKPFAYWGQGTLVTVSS VL: ETVVTQSPATLSLSPGERATLSCRASDAVITLLHWFQQKPGQAPRLLIHGASNLESRVPARFSGSGSGTDFTLTISSLEPEDFATYFCQQSWNDPYTFGQGTKLEIKR
Response: 5.93

Request: Please give the measured EC50 for this binder: AC-264700 (antibody, V domains shown) VH: EVQLVESGGGLVQPGGSLKLSCAASGFIFSNAVMYWVRQASGKGLEWVARIKTKFNNYATYYADSVKGRFTISRDDSKNMVYLQMNSLKTEDTAVYYCTAGDRNKPFAYWGQGTLVTVSS VL: ETVVTQSPATLSLSPGERATLSCRASDSVITLLHWFQQKPGQAPRLLIHGASNLESRVPARFSGSGSGTDFTLTISSLEPEDFATYFCQQSWNDPYTFGQGTKLEIKR
Response: 5.27
